method_notes: gradient 5% acetonitrile 3 min, to 50% in 2 min, to 85% in 15 min, held 3 min, 100 µL/min
condition_notes: column: Zorbax Extend-C18 2.1 x 50 mm; eluents: water / acetonitrile, 0.1% formic acid
measurement_kind: RP-LC retention time (s)
Write down the numeric answer in s and omit the unit.

Below, each entry is followed by its recorded RP-LC retention time result.
| compound | recorded_measurement |
| --- | --- |
| O=C(C1CCN(S(=O)(=O)c2cccc3nonc23)CC1)N1CCc2ccccc2C1 | 913 |
| COc1ccc(C(=O)N2C(C(=O)NC(C)C)COC23CCN(C(=O)CC(C)(C)C)CC3)cc1 (centres undefined) | 713 |
| CCCNC(=O)CCc1nc2ccccc2n(CC(=O)Nc2ccc(CC)cc2)c1=O | 852 |

# RP-LC retention time of CSc1ccc(-c2nc3ccc(C)cn3c2Nc2ccccc2C)cc1 = 795

RP-LC retention time reading for CCOc1cc(C(=O)NC2CCN(c3cc(-c4ccc(F)cc4)[nH]n3)C2)cc(OCC)c1OCC (centres undefined) : 858

Looking up O=C(C1CCCN(c2ccc(Sc3ccc(Br)cc3)nn2)C1)N1CCSCC1 (centres undefined) , I see its RP-LC retention time listed as 932

// field: RP-LC retention time; key: Cc1nc(OC(C)C)cc(N2CCN(C(=O)CCc3ccccc3)CC2)n1 ; value = 617

Consider CCn1cc(CCNC(=O)c2sccc2C)c2cccnc21 . Its measured RP-LC retention time is 705

Memo: O=C(CSc1ccc(N2CCCC(C(=O)NC3CC3)C2)nn1)Nc1cccc(Cl)c1 (centres undefined) , reported RP-LC retention time: 689

====

List of RP-LC retention time values.
method_notes: gradient 5% acetonitrile 3 min, to 50% in 2 min, to 85% in 15 min, held 3 min, 100 µL/min
condition_notes: column: Zorbax Extend-C18 2.1 x 50 mm; eluents: water / acetonitrile, 0.1% formic acid
Record the value in s, omitting the unit from your answer.

| compound | RP-LC retention time [s] |
| --- | --- |
| CCN1C(=O)c2cccnc2Sc2cc(NC(=O)c3cccc(OC)c3)ccc21 | 826 |
| Cc1ccc(NS(=O)(=O)c2cc3n(c2)CCN(C)C3=O)cc1 | 700 |
| Cc1ccc2c(c1)N(S(C)(=O)=O)CCC(C(=O)Nc1ccc(C(C)C)cc1)O2 (stereo not given) | 1130 |
| CC1CCC(NC(=O)C2CCN(S(=O)(=O)c3ccc4c(c3)sc(=O)n4C)CC2)CC1 (stereo not given) | 896 |

--- query ---
RP-LC retention time for CCn1nnc2c(N3CCN(S(=O)(=O)c4cccc(Cl)c4)CC3)ncnc21 is 880

====

method_notes: gradient 5% acetonitrile 3 min, to 50% in 2 min, to 85% in 15 min, held 3 min, 100 µL/min
condition_notes: column: Zorbax Extend-C18 2.1 x 50 mm; eluents: water / acetonitrile, 0.1% formic acid
measurement_kind: RP-LC retention time (s)
// note: answer is a bare numeric in s

| compound | unit_symbol | RP-LC retention time |
| --- | --- | --- |
| CCCn1cnc2cc(CNC(=O)C(C)c3ccccc3)ccc21 (stereo unspecified) | s | 631 |
| Cc1nc(C)c(C(=O)Nc2ccc(F)cc2C)s1 | s | 799 |
| COc1cccc(Nc2c(-c3ccc(Br)cc3)nc3cnccn23)c1 | s | 972 |
| CC(C)c1ccc(C(=O)Nc2nc3ccccc3[nH]2)cc1 | s | 672 |
| O=C(NCc1cccs1)c1ccc2ncnc(N3CCCC3)c2c1 | s | 617 |

Consider the record given below.
Summary for this compound, Cc1cccn2cc(C(=O)NCc3ccccc3Cl)nc12 : RP-LC retention time is 704

====

method_notes: gradient 5% acetonitrile 3 min, to 50% in 2 min, to 85% in 15 min, held 3 min, 100 µL/min
condition_notes: column: Zorbax Extend-C18 2.1 x 50 mm; eluents: water / acetonitrile, 0.1% formic acid
measurement_kind: RP-LC retention time (s)
Field: numeric (s). Do not append units.

# count of solved cases: 4
| compound | unit_symbol | recorded_measurement |
| --- | --- | --- |
| O=C(C1=CCN(Cc2cccc(F)c2)CC1)N1CCN(c2ccccc2F)CC1 | s | 666 |
| COc1ccc(N2C(=O)C3N=NN(Cc4nc(-c5cccc(C)c5)no4)C3C2=O)cc1OC (centres undefined) | s | 911 |
| O=C1c2ccccc2C(=O)N1CCCCN(C(=O)c1cccs1)c1ccc(F)cc1F | s | 951 |
| CCCNC(=O)c1ccc2nc(CCc3ccc(NC(=O)C(C)C)cc3)[nH]c2c1 | s | 617 |

RP-LC retention time reading for COc1ccc2[nH]c(C)c(CCNS(=O)(=O)c3cc(OC)c(C)cc3OC)c2c1 : 870

# compound CC(C)CNC(=O)CN1CCN(Cc2cccc(Cl)c2)C1=O ; its RP-LC retention time = 748

CCCOc1ccc(CNC(=O)CN2CCN(Cc3ccc(F)cc3)C2=O)cc1 yielded RP-LC retention time of 903

# compound Cc1[nH]c(-c2ccccc2)cc1C(=O)NC1CCCC1 ; its RP-LC retention time = 845

The recorded RP-LC retention time for Cc1cc(NC(=O)N2CCCC(C)(C(=O)NCc3ccccc3C)C2)ccc1Br (centres undefined) is 1100

Record Clc1ccc(-c2nnc(-c3nc(NCc4cccnc4)c4ccccc4n3)o2)cc1 , field RP-LC retention time: 680

====

method_notes: gradient 5% acetonitrile 3 min, to 50% in 2 min, to 85% in 15 min, held 3 min, 100 µL/min
condition_notes: column: Zorbax Extend-C18 2.1 x 50 mm; eluents: water / acetonitrile, 0.1% formic acid
measurement_kind: RP-LC retention time (s)
Just the number please, in s, no unit attached.

Entry under test: CC(=O)N1CCc2cc(N3CC(C(=O)Nc4ccc(Cl)cc4)CC3=O)ccc21 (stereo not given) . Its RP-LC retention time was 750

Form field RP-LC retention time, entry Cc1sc(-c2nc(-c3ccc(F)cc3)no2)cc1S(=O)(=O)N1CCN(c2ncccn2)CC1 : 1240

Value of RP-LC retention time reported for the molecule CCNC(=O)C1CCc2sc(C(=O)N3CCCCC3)cc2C1 (stereo not given) is 694

get_value(item= Cc1cc(C(=O)N2CCC(c3nc(-c4ccccc4)no3)C2)n[nH]1 (stereo not given) , readout=RP-LC retention time) returns 727

Input O=C1CCCc2cc(S(=O)(=O)N3CCC(C(=O)N4CCN(c5ccccc5)CC4)CC3)ccc2N1 . Output RP-LC retention time: 754

====

// RP-LC retention time lookup, one value per entry
method_notes: gradient 5% acetonitrile 3 min, to 50% in 2 min, to 85% in 15 min, held 3 min, 100 µL/min
condition_notes: column: Zorbax Extend-C18 2.1 x 50 mm; eluents: water / acetonitrile, 0.1% formic acid
Just the number in s, nothing appended.

The examples below pair each entry with its known result.
| compound | recorded_measurement |
| --- | --- |
| CCN1CCN(c2nc(F)c3c(c2F)S(=O)(=O)CCN3Cc2ccccc2)CC1 | 682 |
| COc1ccc(Cl)cc1NC(=O)N1CCN(c2cc(C)nc(N3CCOCC3)n2)CC1 | 659 |

Field RP-LC retention time (entry CN(C)S(=O)(=O)c1ccc(-c2nnc(C(=O)NCc3ccc(F)c(Cl)c3)o2)cc1 ) reads 898

Input Cc1ccc(Nc2c(-c3cccc(O)c3)nc3ncccn23)cc1C . Output RP-LC retention time: 705

Record O=C1C2ON(c3ccccc3)C(c3ccccn3)C2C(=O)N1c1cccc(C(F)(F)F)c1 (centres undefined) , field RP-LC retention time: 994

====

method_notes: gradient 5% acetonitrile 3 min, to 50% in 2 min, to 85% in 15 min, held 3 min, 100 µL/min
condition_notes: column: Zorbax Extend-C18 2.1 x 50 mm; eluents: water / acetonitrile, 0.1% formic acid
Recorded RP-LC retention time values for a group of molecules are listed next.
Number only, in s; omit the unit.

| molecule | RP-LC retention time / s |
| --- | --- |
| Cc1ccc(-c2ccc(N3CCN(c4ccccn4)CC3)nn2)cc1S(=O)(=O)N1CCCC1 | 656 |

RP-LC retention time measured on COc1cccc(CNC(=O)c2nsc(C(=O)N3CCN(c4ccccn4)CC3)c2N)c1 = 660

For record Cc1nc(-c2cc3ccccc3nc2N2CCN(c3ccc(F)cc3)CC2)no1 the listed RP-LC retention time is 1110

Sample CN(C)C[C@@H]1CN(S(C)(=O)=O)C[C@H]1NC(=O)c1cccn1C ; RP-LC retention time observed: 573

Looking up CC1Oc2ccc(-c3csc(NC(=O)c4ccco4)n3)cc2NC1=O (centres undefined) , I found its RP-LC retention time recorded as 783

Record summary for COc1ccccc1NC(=O)N1CCC2(CC1)NC(=O)c1ccc(Cl)cc1N2 : reported RP-LC retention time = 775

Summary for this molecule, CS(=O)(=O)N1CCC(C(=O)Nc2cccc(C(F)(F)F)c2)Oc2ccccc21 (centres undefined) : RP-LC retention time is 972

The molecule listed as Cc1cccc(CNC(=O)CCc2nc3c(C)cccc3c(=O)n2C)c1 shows RP-LC retention time equal to 845

Note to self: RP-LC retention time recorded for O=C(Cn1nc(C(=O)N2CCCC2)c2ccccc21)NCc1cccs1 was 753

The values you see were collected from the METLIN SMRT retention time set (Domingo-Almenara et al. 2019).
